System: Toxoplasma gondii
Experiment: In vitro anti-Toxoplasma proliferation in infected HFF monolayers (parasitic index, ScanR microscopy)
Assay type: cell-based
Conditions: 24 h, strain Prugniaud, haplogroup 2, clade D, 24 h, mean ± SD of 3 experiments
endpoint: IC50 (nM)
API: value field is a number in nM; no unit string.

Exam item: Give recorded IC50 with Toxoplasma gondii for the following compound: COc1cccc(CC(=O)Nc2ccc(C(=O)NO)cc2)c1
Marked response: 270

* * *

System: Toxoplasma gondii
Assay: In vitro anti-Toxoplasma proliferation in infected HFF monolayers (parasitic index, ScanR microscopy)
Format: cell-based
Conditions: 24 h, strain GUY021-TOJ, haplogroup 10, clade F, 24 h, mean ± SD of 3 experiments
endpoint: pIC50
Friendly reminder that pIC50 comes from taking -log10 of the concentration in mol/L.

Exam item: Tell me the measured pIC50 of COc1cccc(CC(=O)Nc2ccc(C(=O)NO)cc2)c1 [JF363] , please.
Marked response: 6.57

FYI, the data here is from paper PMC8952293.
